The measurements presented in this section are drawn from paper PMC10247784.

- Measured On: human TAS2R1 (Homo sapiens)
- Construct: expressed in transfected cells; host or cells: HEK293T-Gα16gust44
- Sequence (Q9NYW7 whole entry): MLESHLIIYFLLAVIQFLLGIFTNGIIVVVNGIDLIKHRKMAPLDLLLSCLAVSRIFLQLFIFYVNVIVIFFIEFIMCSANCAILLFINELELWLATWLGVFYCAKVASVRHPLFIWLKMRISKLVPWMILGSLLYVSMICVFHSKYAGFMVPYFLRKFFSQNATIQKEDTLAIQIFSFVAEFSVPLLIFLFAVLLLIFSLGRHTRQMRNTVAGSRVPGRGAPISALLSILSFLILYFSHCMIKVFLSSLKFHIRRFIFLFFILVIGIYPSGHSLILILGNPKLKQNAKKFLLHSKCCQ
- Assay Text: Calcium imaging assay (FLIPR), HEK293T-Gα16gust44 cells transfected with human TAS2R1
- Assay type: cell-based
- Measurement Setup: Time 62.781 s
Here the recorded RLU is given for each entry.
Response body: numeric value in RLU, unit text excluded.

C[C@H](CCC(=O)NCC(=O)O)[C@H]1CC[C@H]2[C@@H]3[C@H](O)C[C@@H]4C[C@H](O)CC[C@]4(C)[C@H]3C[C@H](O)[C@]12C [Glycocholic Acid, glycocholic acid]; 619.569
C[C@H](CCC(=O)NCCS(=O)(=O)O)[C@H]1CC[C@H]2[C@@H]3[C@H](O)C[C@@H]4C[C@H](O)CC[C@]4(C)[C@H]3C[C@H](O)[C@]12C [Taurocholic Acid, taurocholic acid]; 396.638
C[C@H](CCC(=O)O)[C@H]1CC[C@H]2[C@@H]3CC[C@@H]4C[C@H](O)CC[C@]4(C)[C@H]3C[C@H](O)[C@]12C [Deoxycholic Acid, deoxycholic acid]; 433.32

Attention now shifts to the item below.
The compound C[C@H](CCC(=O)NCCS(=O)(=O)O)[C@H]1CC[C@H]2[C@@H]3CC[C@@H]4C[C@H](O)CC[C@]4(C)[C@H]3CC[C@]12C [Taurolithocholic Acid, taurolithocholic acid] showed RLU equal to 735.967

----------
- Measured On: mouse Tas2r108 (Mus musculus)
- Construct: expressed in transfected cells; host or cells: HEK293T-Gα16gust44
- Sequence (Q9JKT3 whole entry): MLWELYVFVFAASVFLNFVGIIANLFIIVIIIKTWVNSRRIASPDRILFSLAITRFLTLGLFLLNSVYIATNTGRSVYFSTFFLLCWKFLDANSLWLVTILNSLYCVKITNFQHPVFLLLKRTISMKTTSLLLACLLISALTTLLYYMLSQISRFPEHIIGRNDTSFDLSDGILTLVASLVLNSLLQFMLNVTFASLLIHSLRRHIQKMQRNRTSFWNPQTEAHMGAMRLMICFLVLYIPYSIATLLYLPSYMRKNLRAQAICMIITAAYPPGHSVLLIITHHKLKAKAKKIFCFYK
- Assay Text: Calcium imaging assay (FLIPR), HEK293T-Gα16gust44 cells transfected with mouse Tas2r108
- Assay type: cell-based
- Measurement Setup: Time 149.562 s
Value Kind: RLU (RLU)
Response body: numeric value in RLU, unit text excluded.

Take a look at these entries with their results.
C[C@H](CCC(=O)O)[C@H]1CC[C@H]2[C@@H]3[C@H](O)C[C@@H]4C[C@H](O)CC[C@]4(C)[C@H]3C[C@H](O)[C@]12C; 197.423
C[C@H](CCC(=O)NCC(=O)O)[C@H]1CC[C@H]2[C@@H]3[C@H](O)C[C@@H]4C[C@H](O)CC[C@]4(C)[C@H]3C[C@H](O)[C@]12C; 181.475
C[C@H](CCC(=O)NCCS(=O)(=O)O)[C@H]1CC[C@H]2[C@@H]3[C@H](O)C[C@@H]4C[C@H](O)CC[C@]4(C)[C@H]3C[C@H](O)[C@]12C; 209.286

Attention now shifts to the item below.
The compound C[C@H](CCC(=O)O)[C@H]1CC[C@H]2[C@@H]3CC[C@@H]4C[C@H](O)CC[C@]4(C)[C@H]3C[C@H](O)[C@]12C showed RLU equal to 503.436

----------
- Measured On: human TAS2R4 (Homo sapiens, UniProt Q9NYW5)
- Construct: expressed in transfected cells; host or cells: HEK293T-Gα16gust44
- Sequence (Q9NYW5 whole entry): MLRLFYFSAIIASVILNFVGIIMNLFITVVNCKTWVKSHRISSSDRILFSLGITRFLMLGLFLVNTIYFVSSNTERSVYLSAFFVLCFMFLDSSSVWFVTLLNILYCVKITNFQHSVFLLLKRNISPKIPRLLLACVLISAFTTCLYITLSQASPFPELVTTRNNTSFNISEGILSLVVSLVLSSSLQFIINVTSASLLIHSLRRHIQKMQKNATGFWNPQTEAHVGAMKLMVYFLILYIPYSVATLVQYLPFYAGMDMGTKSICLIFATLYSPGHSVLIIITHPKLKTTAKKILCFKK
- Assay Text: Calcium imaging assay (FLIPR), HEK293T-Gα16gust44 cells transfected with human TAS2R4; note: test concentration or dose not given here
- Assay type: cell-based
- Measurement Setup: Time (s) 38.781 (TCA, TLCA: 38.782)
Value Kind: RLU, fluorescence trace (RLU)
Response body: numeric value in RLU, unit text excluded.

C[C@H](CCC(=O)O)[C@H]1CC[C@H]2[C@@H]3[C@H](O)C[C@@H]4C[C@H](O)CC[C@]4(C)[C@H]3C[C@H](O)[C@]12C [Cholic Acid, cholic acid]; 447.116
C[C@H](CCC(=O)NCCS(=O)(=O)O)[C@H]1CC[C@H]2[C@@H]3CC[C@@H]4C[C@H](O)CC[C@]4(C)[C@H]3CC[C@]12C [Taurolithocholic Acid, taurolithocholic acid]; 159.412
C[C@H](CCC(=O)O)[C@H]1CC[C@H]2[C@@H]3[C@@H](O)C[C@@H]4C[C@H](O)CC[C@]4(C)[C@H]3CC[C@]12C [Ursodeoxycholic Acid, ursodeoxycholic acid]; 316.3
C[C@H](CCC(=O)O)[C@H]1CC[C@H]2[C@@H]3CC[C@@H]4C[C@H](O)CC[C@]4(C)[C@H]3C[C@H](O)[C@]12C [Deoxycholic Acid, deoxycholic acid]; 215
C[C@H](CCC(=O)NCCS(=O)(=O)O)[C@H]1CC[C@H]2[C@@H]3[C@H](O)C[C@@H]4C[C@H](O)CC[C@]4(C)[C@H]3C[C@H](O)[C@]12C [Taurocholic Acid, taurocholic acid]; 384.052

The compound C[C@H](CCC(=O)NCC(=O)O)[C@H]1CC[C@H]2[C@@H]3[C@H](O)C[C@@H]4C[C@H](O)CC[C@]4(C)[C@H]3C[C@H](O)[C@]12C [Glycocholic Acid, glycocholic acid] showed RLU, fluorescence trace equal to 747.083
